Entry source: the supplement of paper PMC12494721

- Test system: Ruminococcus gnavus DSM 108212
- procedure text: fold change of Tryptamine concentration vs plate DMSO controls (fold change (ratio)); higher = more amine produced, active = hit call of the paper (significant change in both replicates, either direction)
- reported conditions: 20 µM; incubation time: 27 h, anaerobic, 37 °C
Counter-ions that a name gives are not always drawn.
# if value of fold change of Tryptamine concentration reaches 1, tag class 1; if it stays below, tag class 0

As a guide, the following entries are already answered.
{"columns": ["compound", "category"],
 "data": [
  ["Cc1nnc(-c2ccccc2)c(=O)n1N", "class 1"],
  ["N#CC(CCc1ccc(Cl)cc1)(Cn1cncn1)c1ccccc1 (stereo not given)", "class 1"],
  ["CCC1(C)CC(=O)NC(=O)C1 [Bemegride]", "class 1"]
]}

# ---- query compound ----
Determine whether measured fold change of Tryptamine concentration meets or exceeds 1 for C=C1CC[C@@]2(O)[C@H]3Cc4ccc(O)c5c4[C@@]2(CCN3CC2CC2)[C@H]1O5 [Nalmefene hydrochloride] class 0
